SYSTEM TESTED: recombinant PRL-3 (Homo sapiens)
Construct: 6xHis (N, cleaved yes); made in house; host or cells: E. coli One Shot BL21 Star
Sequence (O75365 whole entry): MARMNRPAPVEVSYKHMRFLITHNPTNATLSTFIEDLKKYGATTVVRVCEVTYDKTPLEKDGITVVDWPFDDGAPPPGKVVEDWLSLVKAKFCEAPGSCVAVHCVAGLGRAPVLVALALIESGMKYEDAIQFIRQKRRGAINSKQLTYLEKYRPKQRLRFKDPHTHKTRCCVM
EXPERIMENT DESCRIPTION: In vitro phosphatase assay (DiFMUP hydrolysis), PRL-3; note: test concentration or dose not given here
Format: biochemical
RUN CONDITIONS: FDA-approved drug screen; activity compared to DMSO
Structures can show the parent of a compound that is named as a salt.
MEASURE: % Phosphatase Activity (compared to DMSO) PRL-3

>>> reported("CCCCNc1ccc(C(=O)OCCN(C)C)cc1 [Tetracaine HCl]")
"88%"
>>> reported("C[C@H](Cc1cc2c(c(C(N)=O)c1)N(CCCO)CC2)NCCOc1ccccc1OCC(F)(F)F [Silodosin]")
"95%"
>>> reported("CC(C)OC(=O)[C@H](C)N[P@](=O)(OC[C@H]1O[C@@H](n2ccc(=O)[nH]c2=O)[C@](C)(F)[C@@H]1O)Oc1ccccc1 [Sofosbuvir (PSI-7977, GS-7977)]")
"89%"
>>> reported("CC(C)(C)NC[C@H](O)COc1nsnc1N1CCOCC1 [Timolol Maleate]")
"87%"
>>> reported("CO[C@H]1C[C@@H]2CC[C@@H](C)[C@@](O)(O2)C(=O)C(=O)N2CCCC[C@H]2C(=O)O[C@H]([C@H](C)C[C@@H]2CC[C@@H](OC(=O)C(C)(CO)CO)[C@H](OC)C2)CC(=O)[C@H](C)/C=C(\\C)[C@@H](O)[C@@H](OC)C(=O)[C@H](C)C[C@H](C)/C=C/C=C/C=C/1C [Temsirolimus (CCI-779, NSC 683864)]")
"91%"
>>> reported("CC1(C)[C@H](C(=O)O)N2C(=O)C[C@H]2S1(=O)=O [Sulbactam sodium]")
"89%"

###

The following compounds are shown together with reported % Phosphatase Activity (compared to DMSO) PRL-2 values.
SYSTEM TESTED: recombinant PRL-2 (Homo sapiens, UniProt Q12974)
Construct: 6xHis (N, cleaved yes); made in house; host or cells: E. coli One Shot BL21 Star
EXPERIMENT DESCRIPTION: In vitro phosphatase assay (DiFMUP hydrolysis), PRL-2
Format: biochemical
RUN CONDITIONS: FDA-approved drug screen; activity compared to DMSO
MEASURE: % Phosphatase Activity (compared to DMSO) PRL-2 (%)

>>> reported("C=CC[C@@H]1/C=C(\\C)C[C@H](C)C[C@H](OC)[C@H]2O[C@@](O)(C(=O)C(=O)N3CCCC[C@H]3C(=O)O[C@H](/C(C)=C/[C@@H]3CC[C@@H](O)[C@H](OC)C3)[C@H](C)[C@@H](O)CC1=O)[C@H](C)C[C@@H]2OC")
78
>>> reported("Nc1ccc(S(N)(=O)=O)cc1 [Sulfanilamide]")
92
>>> reported("C[C@]1(Cn2ccnn2)[C@H](C(=O)O)N2C(=O)C[C@H]2S1(=O)=O")
103

###

SYSTEM TESTED: recombinant PRL-3 (Homo sapiens)
Construct: 6xHis (N, cleaved yes); made in house; host or cells: E. coli One Shot BL21 Star
EXPERIMENT DESCRIPTION: In vitro phosphatase assay (DiFMUP hydrolysis), PRL-3; note: test concentration or dose not given here
Format: biochemical
RUN CONDITIONS: FDA-approved drug screen; activity compared to DMSO
Counter-ions that a name gives are not always drawn.
MEASURE: % Phosphatase Activity (compared to DMSO) PRL-3 (%)

>>> reported("[H]/N=C(/N)N[C@H]1[C@H](O)[C@@H](O)[C@H](O[C@@H]2O[C@@H](C)[C@](O)(C=O)[C@H]2O[C@@H]2O[C@@H](CO)[C@H](O)[C@@H](O)[C@@H]2NC)[C@@H](N/C(N)=N\\[H])[C@@H]1O [Streptomycin sulfate]")
85
>>> reported("COc1cc(C2Oc3cc([C@H]4Oc5cc(O)cc(O)c5C(=O)[C@@H]4O)ccc3OC2CO)ccc1O (stereo partly drawn)")
87
>>> reported("CN(C)[C@@H]1C(O)=C(C(N)=O)C(=O)[C@@]2(O)C(O)=C3C(=O)c4c(O)cccc4[C@@](C)(O)[C@H]3C[C@@H]12 [Tetracycline HCl]")
61
>>> reported("Oc1cc(Cl)ccc1Oc1ccc(Cl)cc1Cl")
96
>>> reported("CN1CC(=O)N2[C@H](c3ccc4c(c3)OCO4)c3[nH]c4ccccc4c3C[C@@H]2C1=O")
82
>>> reported("CCOc1ccc(Cc2cc([C@@H]3O[C@H](SC)[C@@H](O)[C@H](O)[C@H]3O)ccc2Cl)cc1")
85

###

The following molecules are shown together with reported % Phosphatase Activity (compared to DMSO) PRL-2 values.
SYSTEM TESTED: recombinant PRL-2 (Homo sapiens, UniProt Q12974)
Construct: 6xHis (N, cleaved yes); made in house; host or cells: E. coli One Shot BL21 Star
EXPERIMENT DESCRIPTION: In vitro phosphatase assay (DiFMUP hydrolysis), PRL-2
Format: biochemical
RUN CONDITIONS: FDA-approved drug screen; compared to DMSO
Structures can show the parent of a compound that is named as a salt.
MEASURE: % Phosphatase Activity (compared to DMSO) PRL-2 (%)

>>> reported("Cc1nc2c([nH]1)-c1ccccc1N(C(=O)c1ccc(NC(=O)c3ccccc3-c3ccccc3)cc1)CC2.Cl [Conivaptan HCl]")
106
>>> reported("Clc1ccc(COC(Cn2ccnc2)c2ccc(Cl)cc2Cl)c(Cl)c1 (centres unmarked) [Miconazole]")
101
>>> reported("COc1cc(Nc2ncc(F)c(Nc3ccc4c(n3)N(COP(=O)([O-])[O-])C(=O)C(C)(C)O4)n2)cc(OC)c1OC.[Na+].[Na+] [R788 (Fostamatinib) Disodium]")
119
>>> reported("CCCCOc1cc(C(=O)OCCN(CC)CC)ccc1N [Oxybuprocaine HCl]")
103
>>> reported("COc1cc(C(C)=O)ccc1OCCCN1CCC(c2noc3cc(F)ccc23)CC1 [Iloperidone]")
88
>>> reported("CCN(CC)C(=S)SSC(=S)N(CC)CC [Disulfiram]")
100
>>> reported("O=C(O)CCCCCCCC(=O)O [Azelaic acid]")
98
>>> reported("CNC(=C[N+](=O)[O-])NCCSCc1csc(CN(C)C)n1 [Nizatidine]")
105

###

SYSTEM TESTED: recombinant PRL-1 (Homo sapiens)
Construct: 6xHis (N, cleaved yes); made in house; host or cells: E. coli One Shot BL21 Star
Sequence (Q93096 1-173): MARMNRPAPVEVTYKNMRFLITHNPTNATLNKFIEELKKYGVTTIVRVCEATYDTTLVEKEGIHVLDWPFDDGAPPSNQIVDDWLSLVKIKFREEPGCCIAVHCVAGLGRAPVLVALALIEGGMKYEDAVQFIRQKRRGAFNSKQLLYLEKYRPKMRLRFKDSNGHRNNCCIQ
EXPERIMENT DESCRIPTION: In vitro phosphatase assay (DiFMUP hydrolysis), PRL-1; note: test concentration or dose not given here
Type: biochemical
RUN CONDITIONS: FDA-approved drug screen; compared to DMSO
Structures can show the parent of a compound that is named as a salt.
MEASURE: % Phosphatase Activity (compared to DMSO) PRL-1 (%)

>>> reported("CCOC(=O)[C@H](CCc1ccccc1)N[C@@H](C)C(=O)N1CCC[C@H]1C(=O)O [Enalapril Maleate]")
83
>>> reported("CC(C)C(=O)OCC(=O)[C@@]12O[C@H](C3CCCCC3)O[C@@H]1C[C@H]1[C@@H]3CCC4=CC(=O)C=C[C@]4(C)[C@H]3[C@@H](O)C[C@@]12C [Ciclesonide]")
100
>>> reported("O=C1O[C@H](CO)[C@@H](O)[C@H](O)[C@H]1O")
103
>>> reported("Cc1onc(-c2ccccc2)c1C(=O)N[C@@H]1C(=O)N2[C@@H]1SC(C)(C)[C@@H]2C(=O)[O-].O.[Na+] [Oxacillin sodium monohydrate]")
98
>>> reported("CN(C)CC/C=C1/c2ccccc2Sc2ccc(Cl)cc21")
98
>>> reported("CCCNC(C)C(=O)Nc1ccccc1C (centres unmarked)")
97
>>> reported("CCCCN1CCCCC1C(=O)Nc1c(C)cccc1C (centres unmarked) [Bupivacaine HCl]")
108
>>> reported("CCN1CCN(Cc2ccc(Nc3ncc(F)c(-c4cc(F)c5nc(C)n(C(C)C)c5c4)n3)nc2)CC1")
92

###

SYSTEM TESTED: recombinant PRL-2 (Homo sapiens, UniProt Q12974)
Construct: 6xHis (N, cleaved yes); made in house; host or cells: E. coli One Shot BL21 Star
Sequence (Q12974 1-167): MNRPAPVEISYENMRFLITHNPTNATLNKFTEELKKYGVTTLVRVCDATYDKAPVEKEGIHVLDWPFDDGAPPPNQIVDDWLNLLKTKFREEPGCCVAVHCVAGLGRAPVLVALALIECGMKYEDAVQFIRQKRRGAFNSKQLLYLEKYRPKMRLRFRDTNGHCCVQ
EXPERIMENT DESCRIPTION: In vitro phosphatase assay (DiFMUP hydrolysis), PRL-2;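 note: PRL-2 activity read as DiFMUP hydrolysis after 20 min at room temperature with drug, enzyme first pre-reduced at 4 °C for 20 min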
Type: biochemical
Counter-ions that a name gives are not always drawn.
MEASURE: % Phosphatase Activity (compared to DMSO) PRL-2 (%)

>>> reported("O=C(O[C@H]1C[N+]2(CCCOc3ccccc3)CCC1CC2)C(O)(c1cccs1)c1cccs1 [Aclidinium Bromide]")
117
>>> reported("CNC[C@H](O)c1ccc(O)c(O)c1 [Epinephrine HCl]")
132
>>> reported("C[C@]1(O)CC[C@H]2[C@@H]3CCC4=CC(=O)CC[C@]4(C)[C@@]3(F)[C@@H](O)C[C@@]21C")
102
>>> reported("COc1nc(N)nc2c1ncn2[C@@H]1O[C@H](CO)[C@@H](O)[C@@H]1O")
108
>>> reported("CNCCCC12CCC(c3ccccc31)c1ccccc12 [Maprotiline HCl]")
116
